measuredOn: T1, human GREM1 (hGREM1-His; SEQ ID NO: 595) (human, UniProt O60565 25-184)
T1 construct: also called biotin-hGREM1-His; recombinant human GREM1 protein
T1 sequence: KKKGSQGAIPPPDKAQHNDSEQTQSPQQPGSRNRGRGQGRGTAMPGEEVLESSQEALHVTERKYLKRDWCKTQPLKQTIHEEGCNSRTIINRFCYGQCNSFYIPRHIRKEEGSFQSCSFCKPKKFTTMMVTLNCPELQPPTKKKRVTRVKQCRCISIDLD
procedureDetails: SPR, Biacore T200, 25 C, mAb captured, hGREM1-His injected;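 note: Heparin-supplemented HBS-EP+ used as running buffer, association and dissociation phases followed, Kd computed as koff divided by kon and half-life derived from koff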
Property: Kd; scope: individual binders
Numbers only; they are read as nM.

Observe how each entry below is paired with its result.
Consider H4H6256P (antibody, human IgG4, V domains shown, H4H prefix = human IgG4 Fc) VH: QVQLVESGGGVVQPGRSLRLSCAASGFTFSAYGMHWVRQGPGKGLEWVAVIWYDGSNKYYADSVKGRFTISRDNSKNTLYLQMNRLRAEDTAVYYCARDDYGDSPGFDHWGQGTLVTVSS VL: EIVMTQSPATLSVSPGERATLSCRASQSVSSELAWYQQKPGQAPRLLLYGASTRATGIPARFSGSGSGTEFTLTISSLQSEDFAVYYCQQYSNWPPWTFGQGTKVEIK . Its measured Kd is 1.19

Record summary for H4H6243P (antibody, human IgG4, V domains shown, H4H prefix = human IgG4 Fc) VH: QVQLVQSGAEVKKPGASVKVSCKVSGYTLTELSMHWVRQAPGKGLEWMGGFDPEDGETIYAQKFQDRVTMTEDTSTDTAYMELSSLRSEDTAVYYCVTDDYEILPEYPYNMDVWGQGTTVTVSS VL: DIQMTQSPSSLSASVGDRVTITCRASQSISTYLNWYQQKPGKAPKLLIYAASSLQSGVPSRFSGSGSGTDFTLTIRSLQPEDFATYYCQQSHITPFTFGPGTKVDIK : reported Kd = 11.3

Briefly, Kd measured for H2bM2782N (antibody, mouse IgG2, V domains shown, H2M prefix = mouse IgG2 Fc (here H2bM); also called H2M2782N) VH: EVQLVESGGGLVQPGGSLRLSCAASGFTFSSYSMNWVRQAPGKGLEWVSSISSSSNYINYADSIKGRFTISRDNAKNSLYLQMNSLRAEDTAVYYCARVNWDYPFDCWGRGTLVTVSS VL: DIQMTQSPSSLSASVGDRVTITCRASQDIRHYLVWYQQKPGKVPKLLIYAASTLQSGVPSRFSGSGSGTDFILTISSLQPEDVATYYCQKYNSAPFTFGPGTKVDIK : 15.3

Lab note: H1M2907N (antibody, V domains shown, H1M prefix marks the Fc (chimeric, mouse constant domains)) VH: QVQLVESGGGVVQPGRSLRLSCAASGFTFSSYGMHWVRQAPGKGLEWVAIIWNDGSNKYYVDSVKGRFTISRANSKNTLYLQMNSLRAEDTAVYYCARDGLEPDAFDIWGQGTMVTVSS VL: EIVLTQSPATLSLSPGERATLSCRASQSVSSFLAWYQQKPGQAPRLLIYDASNRATGIPARFSGSGSGTDFTLTISSLEPEDFAVYYCQQRSNWPPYTFGQGTKLEIK gave Kd of 45.3

Notebook: H4H6240P (antibody, human IgG4, V domains shown, H4H prefix = human IgG4 Fc) VH: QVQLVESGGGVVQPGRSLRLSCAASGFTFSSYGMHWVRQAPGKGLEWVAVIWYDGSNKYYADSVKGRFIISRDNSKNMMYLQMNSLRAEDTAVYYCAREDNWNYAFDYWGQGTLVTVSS VL: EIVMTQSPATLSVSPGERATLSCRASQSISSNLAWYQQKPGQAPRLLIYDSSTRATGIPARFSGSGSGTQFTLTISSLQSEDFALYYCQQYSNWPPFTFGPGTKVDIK , Kd read as 4

Field Kd (entry H4H6252P (antibody, human IgG4, V domains shown, H4H prefix = human IgG4 Fc; also called H4H6252S) VH: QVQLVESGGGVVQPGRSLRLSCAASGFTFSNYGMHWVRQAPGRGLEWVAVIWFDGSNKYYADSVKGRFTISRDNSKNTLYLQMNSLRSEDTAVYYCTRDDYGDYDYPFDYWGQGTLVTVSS VL: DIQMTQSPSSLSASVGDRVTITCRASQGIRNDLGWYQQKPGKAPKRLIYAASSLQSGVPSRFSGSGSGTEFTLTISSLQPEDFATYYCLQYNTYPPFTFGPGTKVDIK ) reads 1.02

New cases:
For reference, reported Kd for H4H2780N (antibody, human IgG4, V domains shown, H4H prefix = human IgG4 Fc) VH: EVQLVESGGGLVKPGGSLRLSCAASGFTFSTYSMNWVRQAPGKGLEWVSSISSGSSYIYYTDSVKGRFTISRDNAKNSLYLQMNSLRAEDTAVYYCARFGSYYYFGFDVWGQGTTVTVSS VL: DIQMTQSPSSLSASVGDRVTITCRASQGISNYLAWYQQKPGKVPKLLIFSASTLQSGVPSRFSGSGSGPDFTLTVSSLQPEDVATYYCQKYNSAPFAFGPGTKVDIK stands at 12.4

Form: binder = H2bM2786N (antibody, mouse IgG2, V domains shown, H2M prefix = mouse IgG2 Fc (here H2bM); also called H2M2786N) VH: EVHLLESGGGLVQPGGSLRLSCAASGFTFSSYVMNWVRQAPGKGLEWVSAISGSGGSTYYGDSVKGRSTISRDNSKNTLYLQMKSLRAEDTAVYYCAKGDIAPIVFDAFDIWGQGTMVTVSS VL: DIQMTQSPSSLSASVGDRVTITCQASQDISNCLNWYQHKPGKAPKLLIYDASYLETGVPSRFSGSGSGTDFTFTISSLQPEDIATYYCQQYDNLPYTFGQGTKLEIK ; Kd = 33

The binder listed as H4H2895N (antibody, human IgG4, V domains shown, H4H prefix = human IgG4 Fc) VH: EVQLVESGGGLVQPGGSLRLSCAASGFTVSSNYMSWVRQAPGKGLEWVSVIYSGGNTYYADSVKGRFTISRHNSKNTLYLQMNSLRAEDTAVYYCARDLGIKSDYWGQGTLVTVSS VL: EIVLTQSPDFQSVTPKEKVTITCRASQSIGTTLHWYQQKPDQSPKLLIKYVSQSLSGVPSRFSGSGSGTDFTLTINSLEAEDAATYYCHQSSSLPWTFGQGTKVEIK shows Kd equal to 0.778

Entry H4H6246P (antibody, human IgG4, V domains shown, H4H prefix = human IgG4 Fc) VH: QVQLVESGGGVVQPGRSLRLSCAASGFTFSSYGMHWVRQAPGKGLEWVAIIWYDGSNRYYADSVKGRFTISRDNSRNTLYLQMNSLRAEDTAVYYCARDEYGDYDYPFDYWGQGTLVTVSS VL: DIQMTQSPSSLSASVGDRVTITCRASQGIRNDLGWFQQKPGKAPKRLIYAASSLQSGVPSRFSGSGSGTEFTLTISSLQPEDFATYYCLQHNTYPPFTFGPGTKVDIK , Kd reported as 2.59
